- protocolNotes: yeast display, Sf9 membrane polyspecificity reagent, FACS + sequencing; frameworks hold sequencing errors
experimentalEndpoint: polyreactivity (PSR sort gate)

Before answering, review these 4 worked examples.
Supply reported polyreactivity (PSR sort gate) belonging to this sequence: "QVQLVESGGGLVQAGGSLRLSCAASGIISIFNVMGWYRQAPGKEMEWVASITGRGGSTFYADSVKGRFTISRDNAKNTVDLLMNSMKPEATAVYFCATDNGYTYPVTGLYDYWGQGTQVTVSS" low polyreactivity

Report polyreactivity (PSR sort gate) for "QVQLVESGGGLVQAGGSLRLSCAASGLTFYGNAMGWYIQAPGKERELVAAISSRGGRTYYADSVKGRFTISRDNAKNTVYLQMNSLKPEDTAVYYCNDRYKYPDMDYWGQGTQVTVSS" high polyreactivity

Output measured polyreactivity (PSR sort gate) for this item: "QVQLVESGGGLVQAGGSLRLSCAASGFIFSNNAMGWYRQAPGKERELVAAISGRGGSTYYADSVKGRFTISRDNAKNTVYLQMNSLKPEDTAVYYCNALYTYSYSRFDYWGQGTQVTVSS" low polyreactivity

Give the reported polyreactivity (PSR sort gate) for this sequence. "QVQLVESGGGLVQAGGSLRLSCAASGRTYGGNAMGWYRQAPGKERELVAAITVSAGHTYYADSVKGRFTISRDNAKNTVYLQMKSLKPEDTAVYYCAKVYHWYYSYDYWGQGTQVTVSS" low polyreactivity

Continuing:
Look up polyreactivity (PSR sort gate) of "QVQLVESGGGLVQAGGSLRLSCAASGLTLAPYAMGWYRQAPGKERELVAVITRRGGRTYYADSVKGRFTISRDNAKNTVYLQMNSLKPEDTAVYYCNADTANYADGLDYWGQGTQVTVSS" and report it. low polyreactivity

Quote polyreactivity (PSR sort gate) reported for "QVQLLESGGGLVQAGGSLRLSCAASGFTFVYYAMGWYRQAPGKERELVAAISSSGGITYYADSVKGRFTISRDNAKNTVYLQMNSMKPEDTAVYYCAARLWYPYYYWGQGTQVTVSS" please. high polyreactivity

Quote polyreactivity (PSR sort gate) reported for "QVQLVESGGGLVQAGCSLRLSCAASGLTLRHYAMGWYRQSPGKERELVAAISWNTGSTYYADSVKGRFTISRDNAKNTVYLQMNSLKPEDTAVYYCAAVPRAYYQGLYYWGQCTQVTVSS" please. high polyreactivity

----------
- protocolNotes: yeast display, Sf9 membrane polyspecificity reagent, FACS + sequencing; frameworks hold sequencing errors
experimentalEndpoint: polyreactivity (PSR sort gate)

Reference set, count: 6
Identify the reported polyreactivity (PSR sort gate) for the following entry. "QVQLEESGGGLVQAGGSLRLSCAASGSTFQRYAIGWYRQAPGKERELVAAISYRAGRRYYADSVKGRFTISRDNAKNTVYLQMNSLKPEDTAVYYCAAKNQGYQYDYWGQGTQVTVSS" high polyreactivity

Note polyreactivity (PSR sort gate) for the sequence shown: "QVQLVESGGGLVQAGGSLRLSCAASGYTFWQYAKGWYRQAPGKERELVVTITSRGGSTYYADSVKGRFTISRDNAKNTVYLHMNSLKPEDTAVYYCNARRRYSTRRSDYWGQGTQVTVSS" high polyreactivity

Please look at this sequence and report its polyreactivity (PSR sort gate): "QVQLVESGRGIVQAGRSLRLSCPASGRIYPNAIGWYRQAPGKEREFVAAISRSDGSTYYADSVNGRFTISRDNAKNTVYLQMNSLKPEDTAVYYCATDYRFTSRTANFDYWGQGTLVTVSS" low polyreactivity

Look up and state reported polyreactivity (PSR sort gate) for "QVQLQESGGGLVQAGGSLRLGCAASGNISDAGYMGWYRQAPGKEREFVAAIAAGSNTNYADSVKGRFTISRDNAKNTVYMQLNSLKSEDTGVFYCAVASYDRVQYEYWGQGTQVTVNS" low polyreactivity

For the sequence "QVQLVESGGGLVQAGGSLRLSCAASGITFGDYTMGWYRQAPGKERELVAVISSGGNTNYADSVKGRFTISRDNAKNTVYLQMNSLKPEDTAVYYCAAVIASYGTRYRGGYTRYYYWGQGTQVTVSS" , report polyreactivity (PSR sort gate). high polyreactivity

Give the reported polyreactivity (PSR sort gate) for this sequence. "QVQLVDSGGGLVQAGGSLRISCAASGFIFSSYAMGWSRQAPAKERELVAAISSRGGSTYYADSVKGRFTISRDNAKNTVYLQMNSLKPEDTAVYYCNAYLSPYVQTSRYDDDYWGQGTQVTVSS" high polyreactivity

More entries:
Give the measured polyreactivity (PSR sort gate) for "QVQHVESGGGLVQAGGSLRLSSAASGSIFTFYAMGWSRQAPGKEMELVADITGRGSRTYYADSVTGRFTISRDNAKNTVYLKMNSLKPEDTAVYYCAAGHDRYYQSEYGYWGQGTQVTVSS" high polyreactivity

Please give measured polyreactivity (PSR sort gate) of the following entry: "QVQHVESGGGLVQAGGSLRLSCAASGRIFGYYTMGWYRQAPGKERELVATIDWSGDSTYYADSVKGRFTISRDNAKNTVYLQMNSLKPEDTAVYYCAKRYYLYHYDSWGQGTQVTVSS" low polyreactivity
